Ref: patent EP0596057B1

# study target: Squalene synthase (Rattus norvegicus, UniProt Q02769)
# Sequence (Q02769 whole entry): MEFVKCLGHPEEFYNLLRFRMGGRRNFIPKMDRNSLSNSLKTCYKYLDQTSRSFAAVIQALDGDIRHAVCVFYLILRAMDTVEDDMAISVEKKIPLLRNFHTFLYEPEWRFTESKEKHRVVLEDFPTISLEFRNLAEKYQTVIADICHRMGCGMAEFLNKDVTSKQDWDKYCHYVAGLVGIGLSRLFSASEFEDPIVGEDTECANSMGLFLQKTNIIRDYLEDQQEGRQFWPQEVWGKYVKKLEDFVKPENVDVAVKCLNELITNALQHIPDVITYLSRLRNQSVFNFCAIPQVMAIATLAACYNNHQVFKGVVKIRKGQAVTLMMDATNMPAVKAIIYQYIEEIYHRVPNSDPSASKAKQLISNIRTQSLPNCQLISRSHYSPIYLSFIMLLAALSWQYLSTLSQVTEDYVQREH
# assay info: Inhibition of Squalene synthase (formation of squalene from tritiated farnesyl pyrophosphate, rat liver microsomal protein)
# experimental setup: substrate 1-[3H]-farnesyl pyrophosphate 20µM, 37°C, 15 minutes, read-out: IC50 (concentration which results in a 50% inhibition of squalene production)

compound	IC50 (µM)
OC1(c2ccc(COc3ccccc3)cc2)CN2CCC1CC2 (stereo not shown)	0.03
